Origin of measurements: ChEMBL document CHEMBL1126247

target.desc: Histamine H2 receptor (Cavia porcellus) (UniProt P47747)
Sequence (P47747 whole entry): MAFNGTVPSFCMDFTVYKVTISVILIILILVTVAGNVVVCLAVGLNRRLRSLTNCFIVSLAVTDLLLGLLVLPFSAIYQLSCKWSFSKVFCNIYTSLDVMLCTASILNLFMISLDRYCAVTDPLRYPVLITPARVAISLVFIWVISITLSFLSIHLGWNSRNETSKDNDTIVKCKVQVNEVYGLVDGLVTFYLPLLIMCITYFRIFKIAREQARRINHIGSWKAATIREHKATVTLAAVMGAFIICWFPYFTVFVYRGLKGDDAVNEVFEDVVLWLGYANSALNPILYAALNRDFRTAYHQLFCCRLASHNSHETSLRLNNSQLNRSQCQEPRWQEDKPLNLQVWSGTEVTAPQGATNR
assay.name: Histamine H2 receptor antagonistic activity at a concentration of 0.3 uM on the isolated guinea pig right atrium
Assay type: functional, tissue-based
condition.notes: Cardiac atrium

>  <smiles.repr>
N#CN/C(=N\CCNC(=O)c1ccc(N=[N+]=[N-])cc1)NCCCCOc1cccc(CN2CCCCC2)c1

>  <pKB>
7.54

$$$$
>  <smiles.repr>
N#CN/C(=N\CCCNC(=O)c1ccccc1)NCCCOc1cccc(CN2CCCCC2)c1

>  <pKB>
7.14

$$$$
>  <smiles.repr>
N#CN/C(=N\CCNC(=O)c1ccc(N)c(I)c1)NCCCCOc1cccc(CN2CCCCC2)c1

>  <pKB>
7.35

$$$$
>  <smiles.repr>
N#CN/C(=N\CCCNc1ccc(N=[N+]=[N-])cc1[N+](=O)[O-])NCCCOc1cccc(CN2CCCCC2)c1

>  <pKB>
6.79

$$$$
>  <smiles.repr>
N#CN/C(=N\CCNc1ccc(N=[N+]=[N-])cc1[N+](=O)[O-])NCCCCOc1cccc(CN2CCCCC2)c1

>  <pKB>
7.47

$$$$
>  <smiles.repr>
N#CN/C(=N\CCNC(=O)c1ccc(N)cc1)NCCCCOc1cccc(CN2CCCCC2)c1

>  <pKB>
7.17

$$$$
>  <smiles.repr>
N#CN/C(=N\CCNC(=O)c1cccc(I)c1)NCCCOc1cccc(CN2CCCCC2)c1

>  <pKB>
7.57

$$$$
>  <smiles.repr>
N#CN/C(=N\CCCNC(=O)c1ccc(N=[N+]=[N-])cc1)NCCCCOc1cccc(CN2CCCCC2)c1

>  <pKB>
6.63

$$$$
>  <smiles.repr>
N#CN/C(=N\CCNC(=O)c1ccccc1)NCCCOc1cccc(CN2CCCCC2)c1

>  <pKB>
7.82

$$$$

* * *

target.desc: Histamine H2 receptor (Cavia porcellus) (UniProt P47747)
assay.name: Inhibition of the positive chronotropic response (histamine H2 receptor antagonism) of guinea pig right atrium relative to cimetidine.
Assay type: functional, tissue-based
condition.notes: Cardiac atrium

>  <compound>
N#CN/C(=N\CCNc1ccccc1[N+](=O)[O-])NCCCCOc1cccc(CN2CCCCC2)c1

>  <Relative potency, %>
4360

$$$$
>  <compound>
N#CN/C(=N\CCNC(=O)c1ccc(N=[N+]=[N-])c(I)c1)NCCCOc1cccc(CN2CCCCC2)c1

>  <Relative potency, %>
257

$$$$
>  <compound>
N#CN/C(=N\CCCNC(=O)c1ccc(N=[N+]=[N-])cc1)NCCCCOc1cccc(CN2CCCCC2)c1

>  <Relative potency, %>
170

$$$$
>  <compound>
N#CN/C(=N\CCNC(=O)c1cc(I)c(N)c(I)c1)NCCCOc1cccc(CN2CCCCC2)c1

>  <Relative potency, %>
2460

$$$$
>  <compound>
N#CN/C(=N\CCCNC(=O)c1ccc(N=[N+]=[N-])cc1)NCCCOc1cccc(CN2CCCCC2)c1

>  <Relative potency, %>
91

$$$$
>  <compound>
N#CN/C(=N\CCNC(=O)c1ccc(N)c(I)c1)NCCCCOc1cccc(CN2CCCCC2)c1

>  <Relative potency, %>
891

$$$$
>  <compound>
N#CN/C(=N\CCNC(=O)c1ccc(N)c(I)c1)NCCCOc1cccc(CN2CCCCC2)c1

>  <Relative potency, %>
1440

$$$$
>  <compound>
CNC(=C[N+](=O)[O-])NCCSCc1ccc(CN(C)C)o1

>  <Relative potency, %>
631

$$$$
>  <compound>
N#CN/C(=N\CCNC(=O)c1cc(I)c(N)c(I)c1)NCCCCOc1cccc(CN2CCCCC2)c1

>  <Relative potency, %>
2880

$$$$
>  <compound>
N#CN/C(=N\CCNC(=O)c1ccc(N=[N+]=[N-])cc1)NCCCOc1cccc(CN2CCCCC2)c1

>  <Relative potency, %>
3160

$$$$
>  <compound>
N#CN/C(=N\CCCOc1cccc(CN2CCCCC2)c1)NCC(O)CNc1ccccc1[N+](=O)[O-] (centres undefined)

>  <Relative potency, %>
871

$$$$
>  <compound>
N#CN/C(=N\CCCNc1ccccc1[N+](=O)[O-])NCCCOc1cccc(CN2CCCCC2)c1

>  <Relative potency, %>
1320

$$$$
>  <compound>
N#CN/C(=N\CCCNc1ccc(N=[N+]=[N-])cc1[N+](=O)[O-])NCCCOc1cccc(CN2CCCCC2)c1

>  <Relative potency, %>
245

$$$$
>  <compound>
N#CN/C(=N\CCNc1ccc(N=[N+]=[N-])cc1[N+](=O)[O-])NCCCOc1cccc(CN2CCCCC2)c1

>  <Relative potency, %>
977

$$$$
>  <compound>
N#CN/C(=N\CCNc1ccccc1[N+](=O)[O-])NCCCOc1cccc(CN2CCCCC2)c1

>  <Relative potency, %>
1120

$$$$
>  <compound>
N#CN/C(=N\CCNc1ccc(N=[N+]=[N-])cc1[N+](=O)[O-])NCCCCOc1cccc(CN2CCCCC2)c1

>  <Relative potency, %>
1180

$$$$
>  <compound>
N#CN/C(=N\CCCNc1ccccc1[N+](=O)[O-])NCCCCOc1cccc(CN2CCCCC2)c1

>  <Relative potency, %>
2820

$$$$
>  <compound>
N#CN/C(=N\CCCNc1ccc(N=[N+]=[N-])cc1[N+](=O)[O-])NCCCCOc1cccc(CN2CCCCC2)c1

>  <Relative potency, %>
145

$$$$
>  <compound>
N#CN/C(=N\CCNC(=O)c1ccc(N=[N+]=[N-])cc1)NCCCCOc1cccc(CN2CCCCC2)c1

>  <Relative potency, %>
1380

$$$$
